The measured values listed here are drawn from ChEMBL document CHEMBL3860104.

What follows is a collection of IC50 values obtained with Platelet-activating factor acetylhydrolase (Homo sapiens, UniProt Q13093).
Sequence (Q13093 whole entry): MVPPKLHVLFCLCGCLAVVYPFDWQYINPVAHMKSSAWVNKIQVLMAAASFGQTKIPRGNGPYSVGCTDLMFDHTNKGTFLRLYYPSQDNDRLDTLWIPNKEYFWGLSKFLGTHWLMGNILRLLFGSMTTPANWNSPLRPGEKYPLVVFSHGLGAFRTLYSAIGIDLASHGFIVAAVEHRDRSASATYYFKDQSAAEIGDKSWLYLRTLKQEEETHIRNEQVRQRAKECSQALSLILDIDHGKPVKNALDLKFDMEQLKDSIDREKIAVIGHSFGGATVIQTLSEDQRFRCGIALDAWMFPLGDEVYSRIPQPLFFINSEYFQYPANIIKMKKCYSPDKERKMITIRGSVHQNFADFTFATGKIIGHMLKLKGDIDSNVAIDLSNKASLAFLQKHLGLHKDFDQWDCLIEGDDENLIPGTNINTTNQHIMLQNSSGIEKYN
Property Label: IC50 (µM)

Worked examples, 5 molecules total:
CC(C)[C@@]1(C)CC(=O)N(CCOc2ccc(F)c(C#N)c2)C1 ... 5.4
CC(C)C1CC(=O)N(CCOc2ccc(F)c(C#N)c2)C1 (racemic) ... 1.9
C[C@@]1(c2ccccc2)CC(=O)N(CCOc2ccc(F)c(C#N)c2)C1 ... 1.6
CC(C)(C)C1CC(=O)N(CCOc2ccc(F)c(C#N)c2)C1 (racemic) ... 0.98
C[C@]1(c2ccccc2)CC(=O)N(CCOc2ccc(F)c(C#N)c2)C1 ... 1

(I) CC(C)[C@]1(C)CC(=O)N(CCOc2ccc(F)c(C#N)c2)C1
(II) N#Cc1cc(OCCN2CC(c3ccccc3)CC2=O)ccc1F (racemic)
(III) CC1(C)CC(=O)N(CCOc2ccc(F)c(C#N)c2)C1
List these items ordered by IC50, big to small. // ordering of labels required in reply
III, I, II
(III: 15 µM, I: 2.3 µM, II: 0.86 µM)

###

Experiment: Half life in Han Wistar rat at 1 mg/kg, iv or 3 mg/kg, po administered as bolus dose by LC/MS-MS method
Assay type: ADME, organism-based
Conditions: in vivo
Property Label: half-life (h)

Worked examples, 2 compounds total:
CC1([C@@H]2CC(=O)N(CCOc3ccc(F)c(C#N)c3)C2)CCS(=O)(=O)CC1 ... 0.34
CC1(C2CC(=O)N(CCOc3ccc(F)c(C#N)c3)C2)CCNCC1.Cl (racemic; form 2) ... 2.4

(I) CN1CCC(C)(C2CC(=O)N(CCOc3ccc(F)c(C#N)c3)C2)CC1.Cl (racemic)
(II) CC1(C2CC(=O)N(CCOc3ccc(F)c(F)c3)C2)CCS(=O)(=O)CC1 (racemic)
Which is greater in half-life, the first item I or the second item II ? Select an item and report its label.
I
(I: 1.8 h, II: 0.35 h)

###

Below: a set of entries, each annotated with reported solubility kinetic.
Test: Solubility in pH 7.4 PBS by CLND assay

Worked examples, 2 molecules total:
CC1([C@@H]2CC(=O)N(CCOc3ccc(F)c(F)c3)C2)CCS(=O)(=O)CC1 ... > 450 µM
CC1([C@@H]2CC(=O)N(CCOc3ccc(F)c(C#N)c3)C2)CCS(=O)(=O)CC1 ... > 509 µM

# evaluate next
// returns reported solubility kinetic for input CN1CCC(C)(C2CC(=O)N(CCOc3ccc(F)c(C#N)c3)C2)CC1 (racemic)
> 396 µM
